Biological target: c-Myc template DNA (c-myc quadruplex)
Assay: Quadruplex binding / stop assay (Taq polymerase arrest, capillary electrophoresis)
Conditions: read-out: Stop Data c-Myc μM; concentration at which 50% of the DNA was arrested (arrested:full-length 1:1)
readoutLabel: IC50
Record the result as number plus unit.

Sample records with IC50:
// returns reported IC50 for input CN1CCCC1CCNC(=O)c1cn2c3c(c(NCCCCO)c(F)cc3c1=O)Oc1cc3ccccc3cc1-2 (stereo not shown) 1.75 µM

// returns reported IC50 for input CC(C)NCCCNc1c(F)cc2c(=O)c(C(=O)N3CCOCC3)cn3c2c1Oc1cc2ccccc2cc1-3 1 µM

// returns reported IC50 for input CC(C)(C)OC(=O)NC1CCN(c2c(F)cc3c(=O)c(C(=O)NCC[N+](C)(C)C)cn4c3c2Oc2cc3ccccc3cc2-4)C1 (stereo not shown) 1.75 µM

// returns reported IC50 for input NC1CCN(c2c(F)cc3c(=O)c(C(=O)NCc4ccccc4N4CCCCC4)cn4c3c2Oc2cc3ccccc3cc2-4)C1 (stereo not shown) 1.75 µM

// returns reported IC50 for input CN1CCCC1CCNc1c(F)cc2c(=O)c(C(=O)NCCCn3ccnc3)cn3c2c1Oc1c-3ccc2ccccc12 (stereo not shown) 1.75 µM

Would you mind giving IC50 for every molecule in the list below?
1. CN1CCCC1CCNC(=O)c1cn2c3cc4c(cc3oc3c(N5CC[C@H](N)C5)c(F)cc(c1=O)c32)c(=O)c1ccccc14 (stereo partly shown)
2. CN1CCCC1CCNC(=O)c1cn2c3c(c(NCCCCCO)c(F)cc3c1=O)Oc1cc3ccccc3cc1-2 (stereo not shown)

["0.18 µM", "1.75 µM"]

----------
Experiment: Pharmacokinetic/toxicokinetic evaluation in dogs
Assay type: in vivo, beagle dogs
Conditions: female, beagle, dog, plasma, iv, 1.2 mg/kg, female, Dose 1, 1.2 mg/kg IV, harmonic mean, read-out: T1/2 (converted)
readoutLabel: half-life
Record the result as number plus unit.

// returns reported half-life for input CN1CCCC1CCNC(=O)c1cn2c3c(c(N4CCC(c5cnccn5)C4)c(F)cc3c1=O)Oc1cc3ccccc3cc1-2 (stereo not shown) [CX-3543] 3.8 h

----------
Tested on: SRC quadruplex (SRC89)
Experiment: Direct interaction assay
Type: binding
Conditions: insert SRC
readoutLabel: IC50

// returns reported IC50 for input CN1CCCC1CCNC(=O)c1cn2c3c(c(N4CCC(c5cnccn5)C4)c(F)cc3c1=O)Oc1cc3ccccc3cc1-2 (stereo not shown) > 10 µM

----------
Target: c-Myc template DNA (c-myc quadruplex)
Experiment: Quadruplex binding / stop assay (Taq polymerase arrest, capillary electrophoresis)
Conditions: read-out: S DATA; Table 1D, stop assay data
readoutLabel: log10(IC50) (log10 of the value in nM)
log10 IC50, nM

Sample records with log10(IC50):
Notebook: pull reported log10(IC50) for c-Myc template DNA (c-myc quadruplex), entry CC(C)(C)OC(=O)N1CCN(c2c(F)cc3c(=O)c(C(=O)NCCN4CCCC4)cn4c3c2Oc2cc(Cl)ccc2-4)CC1 3.46

Notebook: pull reported log10(IC50) for c-Myc template DNA (c-myc quadruplex), entry O=C(NCCN1CCCC1)c1cn2c3c(c(N4CCOCC4)c(F)cc3c1=O)Oc1cc(Cl)ccc1-2 4.00

Notebook: pull reported log10(IC50) for c-Myc template DNA (c-myc quadruplex), entry CN1CCCC1CCNC(=O)c1cn2c3c(c(NCCCCO)c(F)cc3c1=O)Oc1cc3ccccc3cc1-2 (stereo not shown) 3.24

Would you mind giving log10(IC50) for every compound in the list below?
1. CN1CCCC1CCNC(=O)c1cn2c3c(c(NC4CCCNC4)c(F)cc3c1=O)Oc1cc3ccccc3cc1-2 (stereo not shown)
2. CN1CCCC1CCNC(=O)c1cn2c3c(c(NCC4CC(C)(C)N(O)C4(C)C)c(F)cc3c1=O)Oc1cc3ccccc3cc1-2 (stereo not shown)

[2.88, 2.57]
